test: DPPH radical scavenging assay
Type: biochemical
details: mean ± SEM of three independent experiments
pEC50: −log10 of the molar value.
property: pEC50

{"recordSmiles": "O=C(/C=C/c1ccc(O)c(O)c1)NOCc1ccc(C(F)(F)F)cc1", "pEC50": 5.22}
{"recordSmiles": "O=C(/C=C/c1ccc(O)c(O)c1)NOCc1cccc(C(F)(F)F)c1", "pEC50": 5.21}
{"recordSmiles": "O=C(/C=C/c1ccc(O)c(O)c1)NOCc1ccccc1C(F)(F)F", "pEC50": 5.05}

###

Documented melting point across a set of compounds

Below: 5 compounds and their reported melting point.
{"compound": "O=C(C=Cc1ccccc1)NOCc1cccc(C(F)(F)F)c1 [Compound 1b]", "melting point": "91 to 93 °C"}
{"compound": "CCCC(CCC)C(=O)NOCc1ccc(C(F)(F)F)cc1 [Compound 4c]", "melting point": "78 to 80 °C"}
{"compound": "O=C(/C=C/c1ccc(O)cc1O)NOCc1cccc(C(F)(F)F)c1 [Compound 3b]", "melting point": "157 to 158 °C"}
{"compound": "O=C(/C=C/c1ccc(O)c(O)c1)NOCc1cccc(C(F)(F)F)c1 [Compound 2b]", "melting point": "110 to 112 °C"}
{"compound": "O=C(/C=C/c1ccc(O)c(O)c1)NOCc1ccccc1C(F)(F)F [Compound 2a]", "melting point": "80 to 82 °C"}

Summary for this compound, CCCC(CCC)C(=O)NOCc1cccc(C(F)(F)F)c1 [Compound 4b] : melting point is 74 to 76 °C

Summary for this compound, O=C(/C=C/c1ccc(O)cc1O)NOCc1ccccc1C(F)(F)F [Compound 3a] : melting point is 165 to 167 °C

Summary for this compound, O=C(C=Cc1ccccc1)NOCc1ccc(C(F)(F)F)cc1 [Compound 1c] : melting point is 148 to 150 °C

Summary for this compound, O=C(C=Cc1ccccc1)NOCc1ccccc1C(F)(F)F [Compound 1a] : melting point is 91 to 93 °C

Summary for this compound, O=C(/C=C/c1ccc(O)cc1O)NOCc1ccc(C(F)(F)F)cc1 [Compound 3c] : melting point is 176 to 178 °C

Summary for this compound, CCCC(CCC)C(=O)NOCc1ccccc1C(F)(F)F [Compound 4a] : melting point is 73 to 75 °C

Summary for this compound, O=C(/C=C/c1ccc(O)c(O)c1)NOCc1ccc(C(F)(F)F)cc1 [Compound 2c] : melting point is 188 to 190 °C
